tested on: CEM cells; assay: CEM cell assay: intrinsic toxicity of test compound in uninfected cells (MTT); format: cell-based
attribute.measured: pIC50
Numbers only, as −log10 of the molar value.

Exercise: What measured pIC50 goes with COc1ccc(COC(=O)NCC(C)C(=O)NC(Cc2ccccc2)C(O)CN2CC3CCCCC3CC2C(=O)NC(C)(C)C)cc1 (stereo not shown) ?
Key: 4.24

====

test: CEM cell assay: intrinsic toxicity of test compound in uninfected cells (MTT); type: cell-based; details: human, uninfected CEM cells (CD4+ cell line); CEM cells without virus, 7 days, concentration reducing cellular viability by 50% (TD50)
Please respond with reported IC50 at 7 days for every item in the list.
Answers are plain numbers, in µM.

* CC(C)(C)NC(=O)[C@@H]1C[C@@H]2CCCC[C@@H]2CN1C[C@@H](O)[C@H](Cc1ccccc1)NC(=O)C[C@H](NC(=O)c1ccc2ccccc2n1)C(N)=O (relative stereo) | 5
* C[C@@H](C(=O)N[C@@H](Cc1ccccc1)[C@H](O)CN1C[C@H]2CCCC[C@H]2C[C@H]1C(=O)NC(C)(C)C)C(C)(C)C(N)=O (relative stereo) | 59

Alright, here's another molecule for you.
Exercise: What measured IC50 at 7 days goes with C[C@@H](C(=O)N[C@@H](Cc1ccccc1)[C@H](O)CN1C[C@H]2CCCC[C@H]2C[C@H]1C(=O)NC(C)(C)C)C(C)(C)C(=O)O (relative stereo) [Example 12C] ?
Key: 50
